Where do these numbers come from? They come from the supplement of paper PMC10567573.

B1: OAS1 (parent)
chain: LTVYAWERGSMKTHFNTAQGFRTV

variants of: B1; experiment: protein stability index of a GFP-peptide fusion (GPS, HEK-293T) (PSI 1-6); higher = more stable; conditions: c terminus: a fixed tail appended;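 note: lentivirally expressed fusions sorted by FACS into six bins by GFP to DsRed ratio, PSI derived from sequencing read proportions per bin multiplied by bin number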
property-name: protein stability index

Q: For `A5Q` , what is its reported protein stability index?
A: 1.54

Q: For `F15R` , what is its reported protein stability index?
A: 2.93

Q: For `T13F` , what is its reported protein stability index?
A: 3.1

Q: For `G20W` , what is its reported protein stability index?
A: 1.9

Q: For `N16K` , what is its reported protein stability index?
A: 3.06

Q: For `T17I` , what is its reported protein stability index?
A: 3.17

Q: For `V3Q` , what is its reported protein stability index?
A: 2.09

Q: For `V3N` , what is its reported protein stability index?
A: 2.05

Q: For `T13Y` , what is its reported protein stability index?
A: 3.56

Q: For `V3F` , what is its reported protein stability index?
A: 3.04

Q: For `K12S` , what is its reported protein stability index?
A: 4.72
